Each recorded value in this set is attributed to paper PMC4356685.

Experiment: Pharmacokinetic studies in rats
Type: in vivo, Sprague Dawley (SD) rats
Conditions: Sprague-Dawley, rat, plasma, iv, 10 mg/kg
RECORDED METRIC: clearance (mL/min/kg)
Return type: number; implicit unit mL/min/kg.

Entry CC(=O)O[C@H]1C(=O)[C@@]2(C)[C@H]([C@H](OC(=O)c3ccccc3)[C@]3(O)C[C@H](OC(=O)[C@H](O)[C@@H](NC(=O)c4ccccc4)c4ccccc4)C(C)=C1C3(C)C)[C@]1(OC(C)=O)CO[C@@H]1C[C@@H]2O [Free PTX, paclitaxel] , clearance reported as 8.5

---

Assay: Pharmacokinetic studies in rats
Type: in vivo, Sprague Dawley (SD) rats
Conditions: Sprague-Dawley, rat, plasma, iv, 10 mg/kg
RECORDED METRIC: AUC(0-inf) (ng·h/mL)
Return type: number; implicit unit ng·h/mL.

Entry CC(=O)O[C@H]1C(=O)[C@@]2(C)[C@H]([C@H](OC(=O)c3ccccc3)[C@]3(O)C[C@H](OC(=O)[C@H](O)[C@@H](NC(=O)c4ccccc4)c4ccccc4)C(C)=C1C3(C)C)[C@]1(OC(C)=O)CO[C@@H]1C[C@@H]2O [Free PTX, paclitaxel] , AUC(0-inf) reported as 49200

---

Test: Pharmacokinetic studies in rats
Format: in vivo, Sprague Dawley (SD) rats
Settings: Sprague-Dawley, rat, plasma, iv, 10 mg/kg
RECORDED METRIC: k el (s⁻¹)
Return type: number; implicit unit s⁻¹.

Entry CC(=O)O[C@H]1C(=O)[C@@]2(C)[C@H]([C@H](OC(=O)c3ccccc3)[C@]3(O)C[C@H](OC(=O)[C@H](O)[C@@H](NC(=O)c4ccccc4)c4ccccc4)C(C)=C1C3(C)C)[C@]1(OC(C)=O)CO[C@@H]1C[C@@H]2O [Free PTX, paclitaxel] , k el reported as 0.000511
